system: day 7 skin wounds; experiment: In vivo phage display screen of naive CX7C T7 library using microdialysis and HTS; set-up: species or system rat; conditions: wound microdialysate, first hour after library injection, Ion Torrent HTS, rat 7-d-old wound
Each record is given label 1 if its reported First hour (counts) is strictly below 10 counts. Records at or above 10 counts are given label 0.

| ENTRY_SEQUENCE | LABEL_VALUE |
| --- | --- |
| CKKNEINNC | label 1 |
| CYWEDKNLC | label 1 |
| CRMKFYSEYC | label 1 |
| CLSQTYRIC | label 0 |
| CLLIYNWSC | label 0 |
| CKMLYEYHC | label 1 |
| CFCQLMYQC | label 1 |
| CNYLVEKNC | label 0 |
| CLTVLSEQC | label 1 |
| CPKKHHLDC | label 0 |
| CYHDTYPNC | label 0 |
